- assayName: MTT antiproliferative
- Type: cell-based
- conditionDescription: human, MCF-10A cells (normal breast cell line)

molecule	u	IC50 at 48 h
C[C@@H]1O[C@@H](O[C@@H]2[C@@H](O)[C@H](OCCc3ccc(O)c(O)c3)O[C@H](CO)[C@H]2OC(=O)/C=C/c2ccc(O)c(O)c2)[C@H](O)[C@H](O)[C@H]1O [Compound 5, verbascoside]	µM	13.9
